# systemUnderTest: L858R/T790M/C797S EGFR (Homo sapiens, UniProt P00533, C797S/L858R/T790M)
# Construct: expressed in transfected cells; host or cells: H1975 clone #25 (lentiviral over-expression, endogenous EGFR knocked out by sgRNA)
# Sequence (P00533 25-1210 T790M/C797S/L858R): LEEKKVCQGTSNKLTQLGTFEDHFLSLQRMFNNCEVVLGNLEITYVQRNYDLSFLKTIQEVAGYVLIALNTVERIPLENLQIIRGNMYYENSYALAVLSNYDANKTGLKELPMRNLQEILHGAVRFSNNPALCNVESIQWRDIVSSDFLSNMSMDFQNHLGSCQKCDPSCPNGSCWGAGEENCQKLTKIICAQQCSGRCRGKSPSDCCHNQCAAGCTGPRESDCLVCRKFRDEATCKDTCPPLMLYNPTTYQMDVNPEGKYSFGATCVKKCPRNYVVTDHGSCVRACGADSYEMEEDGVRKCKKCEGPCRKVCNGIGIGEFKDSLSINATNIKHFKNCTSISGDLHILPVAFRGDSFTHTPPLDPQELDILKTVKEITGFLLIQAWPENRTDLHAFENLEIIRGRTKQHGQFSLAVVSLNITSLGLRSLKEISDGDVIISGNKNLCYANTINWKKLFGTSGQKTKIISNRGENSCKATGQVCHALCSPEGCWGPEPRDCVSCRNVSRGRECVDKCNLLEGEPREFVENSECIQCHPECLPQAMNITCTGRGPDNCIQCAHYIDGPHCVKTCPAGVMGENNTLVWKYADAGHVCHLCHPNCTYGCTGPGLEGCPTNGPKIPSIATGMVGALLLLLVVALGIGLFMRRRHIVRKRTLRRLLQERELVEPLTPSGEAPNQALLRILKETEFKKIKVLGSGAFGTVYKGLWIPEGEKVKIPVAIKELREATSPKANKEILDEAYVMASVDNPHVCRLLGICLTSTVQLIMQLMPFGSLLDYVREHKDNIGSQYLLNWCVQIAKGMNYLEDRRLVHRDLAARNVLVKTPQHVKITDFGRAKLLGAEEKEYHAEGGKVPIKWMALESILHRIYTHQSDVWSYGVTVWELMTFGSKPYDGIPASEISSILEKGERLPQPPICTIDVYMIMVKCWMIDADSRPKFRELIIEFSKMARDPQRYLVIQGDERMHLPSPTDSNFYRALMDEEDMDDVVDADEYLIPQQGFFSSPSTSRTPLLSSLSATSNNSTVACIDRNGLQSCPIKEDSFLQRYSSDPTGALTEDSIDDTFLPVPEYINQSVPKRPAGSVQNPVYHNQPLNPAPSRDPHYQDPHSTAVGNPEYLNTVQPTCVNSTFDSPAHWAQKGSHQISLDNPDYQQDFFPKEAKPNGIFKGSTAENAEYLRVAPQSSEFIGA
# experiment: EGFR degradation HTRF assay in H1975-clone #25 (LTC) cells
# Assay type: cell-based
# experimentalConditions: NCI-H1975, H1975 # 25-LTC (L858R/T790M/C797S), 16h treatment, maximum percentage of degradation
propertyLabel: Dmax (%)
# value in %; strip the unit string

Req: Notebook: pull reported Dmax for L858R/T790M/C797S EGFR (Homo sapiens, UniProt P00533, C797S/L858R/T790M), entry Cc1cc2cc(n1)-c1cnn(C)c1OCCC[C@@H](C)CN1/C(=N/C2=O)Nc2ccc(C(=O)N(C)C3CCN(CCc4cccc5c4C(C)(C)C(=O)N5C4CCC(=O)NC4=O)CC3)cc21 (some centres unmarked) [Example 317]
Resp: 80.2

Req: Notebook: pull reported Dmax for L858R/T790M/C797S EGFR (Homo sapiens, UniProt P00533, C797S/L858R/T790M), entry Cc1cc2cc(n1)-c1cnn(C)c1OCCC[C@@H](C)CN1/C(=N/C2=O)Nc2ccc(C(=O)N(C)[C@@H]3CCN(CCc4cc(F)c([C@H]5CCC(=O)NC5=O)c(F)c4)C[C@H]3C)cc21 [Example 257]
Resp: 88

Req: Notebook: pull reported Dmax for L858R/T790M/C797S EGFR (Homo sapiens, UniProt P00533, C797S/L858R/T790M), entry Cc1cc2cc(n1)-c1cnn(C)c1OCCC[C@@H](C)CN1/C(=N/C2=O)Nc2ccc(C(=O)N3CC[C@H](NCCc4cc(F)c([C@H]5CCC(=O)NC5=O)c(F)c4)C3)cc21 [Example 298]
Resp: 90.1

Req: Notebook: pull reported Dmax for L858R/T790M/C797S EGFR (Homo sapiens, UniProt P00533, C797S/L858R/T790M), entry Cc1cc2cc(n1)-c1cnn(C)c1OCC[C@@H]1C[C@H]1CN1/C(=N/C2=O)Nc2ccc(N3CCN(C4CCN(c5cc(F)c([C@H]6CCC(=O)NC6=O)c(F)c5)CC4)CC3)cc21 [Example 441]
Resp: 89.2

Req: Notebook: pull reported Dmax for L858R/T790M/C797S EGFR (Homo sapiens, UniProt P00533, C797S/L858R/T790M), entry Cc1cc2cc(n1)-c1cnn(C)c1OCCC[C@@H](C)CN1/C(=N/C2=O)Nc2ccc(C(=O)OC3CCN(CCc4cc(F)c([C@H]5CCC(=O)NC5=O)c(F)c4)CC3)cc21 [Example 313]
Resp: 81

Req: Notebook: pull reported Dmax for L858R/T790M/C797S EGFR (Homo sapiens, UniProt P00533, C797S/L858R/T790M), entry Cc1cc2cc(n1)-c1cnn(C)c1OCCC[C@@H](C)CN1/C(=N/C2=O)Nc2ccc(N3CC4(CCN(CC5CN(c6cc(F)c([C@H]7CCC(=O)NC7=O)c(F)c6)C5)CC4)CC3=O)cc21 [Example 406]
Resp: 89.6

Req: Notebook: pull reported Dmax for L858R/T790M/C797S EGFR (Homo sapiens, UniProt P00533, C797S/L858R/T790M), entry Cc1cc2cc(n1)-c1cnn(C)c1OCCC[C@@H](C)CN1/C(=N/C2=O)Nc2ccc(C(=O)N[C@H]3CCN(CCc4cc(F)c([C@H]5CCC(=O)NC5=O)c(F)c4)C[C@@H]3F)cc21 [Example 342]
Resp: 90.8

Req: Notebook: pull reported Dmax for L858R/T790M/C797S EGFR (Homo sapiens, UniProt P00533, C797S/L858R/T790M), entry Cc1cc2cc(n1)-c1cnn(C)c1OCCC[C@@H](C)CN1/C(=N/C2=O)Nc2ccc(C(=O)N(C)CCC3CCN(c4cc(F)c([C@H]5CCC(=O)NC5=O)c(F)c4)CC3)cc21 [Example 279]
Resp: 83

Req: Notebook: pull reported Dmax for L858R/T790M/C797S EGFR (Homo sapiens, UniProt P00533, C797S/L858R/T790M), entry Cc1cc2cc(n1)-c1cnn(C)c1OCCC[C@@H](C)CN1/C(=N/C2=O)Nc2ccc(C(=O)N[C@@H]3CCN(CCc4cc(F)c([C@H]5CCC(=O)NC5=O)c(F)c4)CC3(C)C)cc21 [Example 263]
Resp: 93.6

Req: Notebook: pull reported Dmax for L858R/T790M/C797S EGFR (Homo sapiens, UniProt P00533, C797S/L858R/T790M), entry Cc1cc2cc(n1)-c1cnn(C)c1OCCC[C@@H](C)CN1/C(=N/C2=O)Nc2ccc(N3CC[C@H](C(=O)N4CCN(c5cc(F)c([C@H]6CCC(=O)NC6=O)c(F)c5)CC4)C3)cc21 [Example 358]
Resp: 89.6

Req: Notebook: pull reported Dmax for L858R/T790M/C797S EGFR (Homo sapiens, UniProt P00533, C797S/L858R/T790M), entry Cc1cc2cc(n1)-c1cnn(C)c1OCCC[C@@H](C)CN1/C(=N/C2=O)Nc2ccc(N3CCC(N4CCC(Oc5cc(F)c([C@H]6CCC(=O)NC6=O)c(F)c5)CC4)CC3)cc21 [Example 381]
Resp: 83.6

Req: Notebook: pull reported Dmax for L858R/T790M/C797S EGFR (Homo sapiens, UniProt P00533, C797S/L858R/T790M), entry COC[C@@H]1CN(c2ccc3c(c2)N2C[C@H](C)CCCOc4c(cnn4C)-c4cc(cc(C)n4)C(=O)/N=C/2N3)CCN1C1CCN(c2cc(F)c([C@H]3CCC(=O)NC3=O)c(F)c2)CC1 [Example 397]
Resp: 88.3

Req: Notebook: pull reported Dmax for L858R/T790M/C797S EGFR (Homo sapiens, UniProt P00533, C797S/L858R/T790M), entry Cc1cc2cc(n1)-c1cnn(C)c1OCC[C@H]1C[C@@H]1CN1/C(=N/C2=O)Nc2ccc(N3CCN(C[C@H]4C[C@H](Nc5cc(F)c([C@H]6CCC(=O)NC6=O)c(F)c5)C4)CC3)cc21 [Example 457]
Resp: 92.8

Req: Notebook: pull reported Dmax for L858R/T790M/C797S EGFR (Homo sapiens, UniProt P00533, C797S/L858R/T790M), entry CO[C@@H]1CN(CCc2cc(F)c([C@H]3CCC(=O)NC3=O)c(F)c2)CC[C@H]1N(C)C(=O)c1ccc2c(c1)N1C[C@H](C)CCCOc3c(cnn3C)-c3cc(cc(C)n3)C(=O)/N=C/1N2 [Example 254]
Resp: 91.2

Req: Notebook: pull reported Dmax for L858R/T790M/C797S EGFR (Homo sapiens, UniProt P00533, C797S/L858R/T790M), entry CO[C@H]1CN(CCc2cc(F)c([C@H]3CCC(=O)NC3=O)c(F)c2)CC[C@H]1NC(=O)c1ccc2c(c1)N1C[C@H](C)CCCOc3c(cnn3C)-c3cc(cc(C)n3)C(=O)/N=C/1N2 [Example 244]
Resp: 95.3

Req: Notebook: pull reported Dmax for L858R/T790M/C797S EGFR (Homo sapiens, UniProt P00533, C797S/L858R/T790M), entry Cc1cc2cc(n1)-c1cnn(C)c1OCCC[C@@H](C)CN1/C(=N/C2=O)Nc2ccc(CN3CCC4(CC3)CCN(C(=O)[C@@H]3CCN(c5cc(F)c([C@H]6CCC(=O)NC6=O)c(F)c5)C3)CC4)cc21 [Example 9]
Resp: 90.1

Req: Notebook: pull reported Dmax for L858R/T790M/C797S EGFR (Homo sapiens, UniProt P00533, C797S/L858R/T790M), entry Cc1cc2cc(n1)-c1cnn(C)c1OCCC[C@@H](C)CN1/C(=N/C2=O)Nc2ccc(C(=O)N(C)C3CN(C4CCN(c5cc(F)c([C@H]6CCC(=O)NC6=O)c(F)c5)CC4)C3)cc21 [Example 309]
Resp: 83
